ASSAY DETAILS: Tumor uptake and tissue distribution in mice bearing SJSA-1 xenografts
Type: in vivo, athymic mice
CONDITION CONTEXT: athymic, mouse, bone, iv, 166.5 kBq, total radioactivity
ASSAY METRIC: tissue uptake at 24 h (%ID/g)

COMPOUND	ASSAY METRIC	EXPERIMENTAL RESULT
CC(=O)N[C@@H](CCCCNC(=O)c1cccc(I)c1)C(=O)NCCCCCC(=O)N[C@H](C(=O)N[C@@H](CO)C(=O)N[C@@H](Cc1ccccc1)C(=O)N[C@]1(C)CCCCCCC=CCCC[C@@](C)(C(=O)N[C@@H](CCC(=O)O)C(=O)N[C@@H](CC(N)=O)C(=O)N[C@@H](Cc2ccccc2)C(N)=O)NC(=O)[C@H](CC(C)C)NC(=O)[C@H](CC(C)C)NC(=O)[C@H](C)NC(=O)[C@H](Cc2c[nH]c3ccccc23)NC(=O)[C@H](Cc2ccc(O)cc2)NC(=O)[C@H](CCC(=O)O)NC1=O)[C@@H](C)O [[^125I]SIB-VIP116]	tissue uptake at 24 h	0.16

====

ASSAY DETAILS: Tumor uptake and tissue distribution in mice bearing SJSA-1 xenografts
Format: in vivo, athymic mice
CONDITION CONTEXT: athymic, mouse, muscle, iv, 166.5 kBq, total radioactivity
ASSAY METRIC: tissue uptake at 0.5 h (%ID/g)

MOLECULE	DISPLAY UNIT	EXPERIMENTAL RESULT
CC(=O)N[C@@H](CCCCNC(=O)c1cccc(I)c1)C(=O)NCCCCCC(=O)N[C@H](C(=O)N[C@@H](CO)C(=O)N[C@@H](Cc1ccccc1)C(=O)N[C@]1(C)CCCCCCC=CCCC[C@@](C)(C(=O)N[C@@H](CCC(=O)O)C(=O)N[C@@H](CC(N)=O)C(=O)N[C@@H](Cc2ccccc2)C(N)=O)NC(=O)[C@H](CC(C)C)NC(=O)[C@H](CC(C)C)NC(=O)[C@H](C)NC(=O)[C@H](Cc2c[nH]c3ccccc23)NC(=O)[C@H](Cc2ccc(O)cc2)NC(=O)[C@H](CCC(=O)O)NC1=O)[C@@H](C)O [[^125I]SIB-VIP116]	%ID/g	0.16

====

ASSAY DETAILS: Tumor uptake and tissue distribution in mice bearing SJSA-1 xenografts
Format: in vivo, athymic mice
CONDITION CONTEXT: athymic, mouse, small intestine, iv, 166.5 kBq, total radioactivity
ASSAY METRIC: tissue uptake at 0.5 h (%ID/g)

COMPOUND	EXPERIMENTAL RESULT
CC(=O)N[C@@H](CCCCNC(=O)c1cccc(I)c1)C(=O)NCCCCCC(=O)N[C@H](C(=O)N[C@@H](CO)C(=O)N[C@@H](Cc1ccccc1)C(=O)N[C@]1(C)CCCCCCC=CCCC[C@@](C)(C(=O)N[C@@H](CCC(=O)O)C(=O)N[C@@H](CC(N)=O)C(=O)N[C@@H](Cc2ccccc2)C(N)=O)NC(=O)[C@H](CC(C)C)NC(=O)[C@H](CC(C)C)NC(=O)[C@H](C)NC(=O)[C@H](Cc2c[nH]c3ccccc23)NC(=O)[C@H](Cc2ccc(O)cc2)NC(=O)[C@H](CCC(=O)O)NC1=O)[C@@H](C)O [[^125I]SIB-VIP116]	0.43

====

ASSAY DETAILS: Tumor uptake and tissue distribution in mice bearing SJSA-1 xenografts
Type: in vivo, athymic mice
CONDITION CONTEXT: athymic, mouse, kidneys, iv, 166.5 kBq, total radioactivity
ASSAY METRIC: tissue uptake at 24 h (%ID/g)

COMPOUND	DISPLAY UNIT	EXPERIMENTAL RESULT
CC(=O)N[C@@H](CCCCNC(=O)c1cccc(I)c1)C(=O)NCCCCCC(=O)N[C@H](C(=O)N[C@@H](CO)C(=O)N[C@@H](Cc1ccccc1)C(=O)N[C@]1(C)CCCCCCC=CCCC[C@@](C)(C(=O)N[C@@H](CCC(=O)O)C(=O)N[C@@H](CC(N)=O)C(=O)N[C@@H](Cc2ccccc2)C(N)=O)NC(=O)[C@H](CC(C)C)NC(=O)[C@H](CC(C)C)NC(=O)[C@H](C)NC(=O)[C@H](Cc2c[nH]c3ccccc23)NC(=O)[C@H](Cc2ccc(O)cc2)NC(=O)[C@H](CCC(=O)O)NC1=O)[C@@H](C)O [[^125I]SIB-VIP116]	%ID/g	0.63
